Molecular target: LXR α LBD protein (Homo sapiens (Human))
Assay: LXR α radioligand binding assay (SPA, competition with [3H]TO901317)
Settings: read-out: LXRα Binding Ki
Answer each item with its documented log10 Ki.
In our notation, the value equals log10 of Ki in nM.

Below are worked cases with known answers.
> print(dat)
                                   compound  observed.value
1  CC(C)[C@@H]1CN(c2cccc(S(C)(=O)=O)c2)CCN1c1ncc(OC(F)F)cn1 [7-11]            2.95
2  CO[C@@H](C)[C@@H]1CN(c2ccc(CO)c(S(C)(=O)=O)c2)CCN1c1ncc(CO)c(C(F)(F)F)n1 (single isomer, unassigned) [11-4]            3.28
3  CC(C)[C@@H]1CN(c2ccc(C#N)c(S(C)(=O)=O)c2)CCN1c1ncc([C@H](C)O)c(C(F)(F)F)n1 (single isomer, unassigned) [12-5]            3.07
4  CC(C)[C@@H]1CN(c2ccc(F)c(S(C)(=O)=O)c2)CCN1c1ncc(C(F)(F)F)cc1[N+](=O)[O-] [7-42]            2.79

Return reported log10 Ki values for all items listed beneath this line.
1. C[C@@](O)(c1ccc(CN2CCN(c3cccc(S(C)(=O)=O)c3)C[C@H]2c2ccccc2)cc1)C(F)(F)F (single isomer, unassigned) [46-30]
2. CS(=O)(=O)c1cc(N2CCN(C[C@H]3CC[C@@H](C(F)(F)F)CC3)[C@@H](c3ccccc3)C2)ccc1C#N (single isomer, unassigned) [50-6]
3. CC(C)[C@@H]1CN(c2ccc(F)c(S(C)(=O)=O)c2)CCN1c1nc2ccccc2s1 [7-56]
4. CC(C)[C@@H]1CN(c2ccc(F)c(S(C)(=O)=O)c2)CCN1c1cncc(C(F)(F)F)n1 [7-45]

*A*
1. 3.22
2. 2.38
3. 2.16
4. 2.06

---

Molecular target: LXR α LBD protein (Homo sapiens (Human), UniProt Q13133)
Sequence (Q13133 209-447): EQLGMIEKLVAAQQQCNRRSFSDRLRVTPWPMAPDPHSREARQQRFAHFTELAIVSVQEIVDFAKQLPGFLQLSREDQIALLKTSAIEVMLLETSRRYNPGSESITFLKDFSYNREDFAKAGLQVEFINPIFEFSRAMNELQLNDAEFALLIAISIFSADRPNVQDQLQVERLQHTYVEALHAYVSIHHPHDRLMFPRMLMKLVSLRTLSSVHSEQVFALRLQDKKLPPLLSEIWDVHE
Assay: Human LXRα coactivator recruitment FRET assay, agonist mode
Format: biochemical
Conditions: agonist mode
Answer each item with its documented EC50.
Answers are plain numbers, in nM.

Below are worked cases with known answers.
> print(dat)
                                   compound                        measurement.target  reported.endpoint  observed.value
1  CC(C)COC(=O)N1CCN(c2cccc(S(C)(=O)=O)c2)C[C@H]1C(C)C  LXR α LBD protein (Homo sapiens (Human), UniProt Q13133)               EC50             340
2  CC(C)[C@H]1CC[C@H](CN2CCN(c3cccc(S(C)(=O)=O)c3)C[C@@H]2c2ccccc2)CC1 (single isomer, unassigned)  LXR α LBD protein (Homo sapiens (Human), UniProt Q13133)               EC50            2310
3  CS(=O)(=O)c1cc(N2CCN(Cc3ccc(C(F)(F)F)nc3)C(c3ccccc3)C2)ccc1CO (stereo not drawn)  LXR α LBD protein (Homo sapiens (Human), UniProt Q13133)               EC50            2020
4  COC(=O)c1cnc(N2CCN(c3cccc(S(C)(=O)=O)c3)C[C@H]2C(C)C)nc1  LXR α LBD protein (Homo sapiens (Human), UniProt Q13133)               EC50             480

Shift focus to the following entry.
*Q* What does the data say about its EC50? Entry: CS(=O)(=O)c1cccc(N2CCN(Cc3ccc(C(F)(F)F)cc3)[C@H](c3ccccc3)C2)c1 (single isomer, unassigned)
*A* 14200

---

Target: Gal4 DNA binding domain fused to the LBD of LXRα in HEK293 cells (Homo sapiens (Human))
Experiment: LXR luciferase transcriptional reporter gene assay, agonist mode, LXRα
Assay type: cell-based
Conditions: agonist mode; read-out: Cell LXRα EC50
Answer each item with its documented EC50.
Numbers only, in µM.

Below are worked cases with known answers.
> print(dat)
                                   compound  observed.value
1  Cc1noc(-c2ccc(N3CCN(c4ncc(CO)c(C(F)(F)F)n4)[C@H](C(C)C)C3)cc2S(C)(=O)=O)n1            6.29
2  CS(=O)(=O)c1cccc(N2CCN(Cc3ccc(C(F)(F)F)c(Br)c3)C(c3ccccc3)C2)c1 (stereo not drawn)            3.45

*Q* Form entry - test system: Gal4 DNA binding domain fused to the LBD of LXRα in HEK293 cells (Homo sapiens (Human)); read-out: EC50; compound: CC(C)(C)C1CN(c2ccc(F)c(S(C)(=O)=O)c2)CCN1c1nccc(C(F)(F)F)n1 (stereo not drawn)
*A* 0.15

---

Answer each item with its documented log10 EC50.
Biological target: Gal4 DNA binding domain fused to the LBD of LXRα in HEK293 cells (Homo sapiens (Human))
Assay: LXR luciferase transcriptional reporter gene assay, agonist mode, LXRα
Assay type: cell-based
Conditions: read-out: Cell LXRα EC50
In our notation, the value equals log10 of EC50 in µM.

Below are worked cases with known answers.
> print(dat)
                                   compound                        measurement.target  reported.endpoint  observed.value
1  CC(C)[C@H]1CN(c2ccc(CO)c(S(C)(=O)=O)c2)CCN1C[C@@H]1CC[C@@H](C(F)(F)F)OC1 [Cpd No 49-3]  Gal4 DNA binding domain fused to the LBD of LXRα in HEK293 cells (Homo sapiens (Human))         log10 EC50           -0.75
2  CS(=O)(=O)c1cccc(N2CCN(C[C@@H]3C[C@H]4CC[C@@H](C3)N4CC(F)(F)F)[C@@H](c3ccccc3)C2)c1 [48-76]  Gal4 DNA binding domain fused to the LBD of LXRα in HEK293 cells (Homo sapiens (Human))         log10 EC50            0.14
3  CS(=O)(=O)c1cccc(N2CCN(C[C@H]3CC[C@@H](C(F)(F)F)CC3)[C@@H](c3ccccc3)C2)c1 (single isomer, unassigned) [48-31]  Gal4 DNA binding domain fused to the LBD of LXRα in HEK293 cells (Homo sapiens (Human))         log10 EC50           -0.60
4  CC(C)[C@H]1CN(c2ccc(CO)c(S(C)(=O)=O)c2)CCN1Cc1ccc(C(F)(F)F)o1 [47-5]  Gal4 DNA binding domain fused to the LBD of LXRα in HEK293 cells (Homo sapiens (Human))         log10 EC50            0.08
5  CC(C)[C@@H]1CN(c2ccc(F)c(S(C)(=O)=O)c2)CCN1c1nc2cnccc2s1 [7-58]  Gal4 DNA binding domain fused to the LBD of LXRα in HEK293 cells (Homo sapiens (Human))         log10 EC50            0.81

Return reported log10 EC50 values for all items listed beneath this line.
1. CC(C)[C@@H]1CN(c2ccc(F)c(S(C)(=O)=O)c2)CCN1c1nc(C(F)(F)F)c(C(C)(C)O)o1 [10-8]
2. CC(=O)NCc1cnc(N2CCN(c3ccc(F)c(S(C)(=O)=O)c3)C[C@H]2C(C)C)nc1C(F)(F)F [54-2]

*A*
[0.67, 0.49]

---

Target: Gal4 DNA binding domain fused to the LBD of LXRβ in HEK293 cells (Homo sapiens (Human), UniProt P55055)
Sequence (P55055 222-460 limits assumed): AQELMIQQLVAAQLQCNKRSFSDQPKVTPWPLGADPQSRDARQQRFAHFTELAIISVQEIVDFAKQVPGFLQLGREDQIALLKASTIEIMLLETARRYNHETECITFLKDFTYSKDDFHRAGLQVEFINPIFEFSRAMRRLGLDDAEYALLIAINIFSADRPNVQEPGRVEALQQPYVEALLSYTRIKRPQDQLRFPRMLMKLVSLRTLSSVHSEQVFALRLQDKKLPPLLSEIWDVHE
Assay: cell-based
reported_endpoint: EC50

Return reported EC50 values for all items listed beneath this line.
1. CN(C)C(=O)c1cnc(N2CCN(c3ccc(F)c(S(C)(=O)=O)c3)C[C@H]2c2ccc(F)cc2)nc1C(F)(F)F
2. CS(=O)(=O)c1cccc(N2CCN(Cc3ccc(C(F)(F)F)nc3)[C@H](c3ccccc3Cl)C2)c1 (single isomer, unassigned)

*A*
> 20 µM
> 20 µM

*Q* What does the data say about its EC50? Entry: CS(=O)(=O)c1cccc(N2CCN(Cc3ccc(C(F)(F)F)o3)[C@H](c3ccccc3)C2)c1
*A* > 20 µM

---

Molecular target: Gal4 DNA binding domain fused to the LBD of LXRα in HEK293 cells (Homo sapiens (Human), UniProt Q13133)
Sequence (Q13133 209-447): as the sequence (Q13133 209-447) above
Test: LXR luciferase transcriptional reporter gene assay, agonist mode, LXRα
Assay type: cell-based
reported_endpoint: Cell LXRα efficacy

> print(dat)
                                   compound  observed.value
1  CC(C)[C@@H]1CN(c2ccc(F)c(S(C)(=O)=O)c2)CCN1c1ncc(Cl)c(C2CC2)n1     1482 (31) %
2  CC(C)[C@@H]1CN(c2cccc(S(C)(=O)=O)c2)CCN1C(=O)OCC(C)(C)C     1424 (48) %
3  CCOC(=O)c1cnc(N2CCN(c3ccc(F)c(S(C)(=O)=O)c3)C[C@H]2C(C)C)nc1C      909 (40) %
4  CC(C)[C@@H]1CN(c2cccc(S(C)(=O)=O)c2)CCN1c1nccc(OC(F)F)n1     2594 (24) %

Shift focus to the following entry.
*Q* What does the data say about its Cell LXRα efficacy? Entry: COC(=O)c1cnc(N2CCN(c3cccc(S(C)(=O)=O)c3)C[C@H]2C(C)C)nc1
*A* 3532 (36) %
